experiment: Drug concentration in serum and tissues by LC-MS, pharmacokinetics and BBB permeability; assay type: in vivo, mice; conditions: C57BL/6, mouse, contralateral non-ischemic hemisphere (CL brain), iv; 15 mg/kg i.v.; CL brain; tissue density assumed 1 g/ml; mean ± SD; read-out: AUC0–6 h
test.readout: AUC(0-t) (ng·h/mL)
One number for each entry, in ng·h/mL.

The compound listed as O=C(CCN1CCN(Cc2ccccc2)CC1)Nc1nc(-c2ccccc2)cs1 [TJ-5] has a reported AUC(0-t) of 4790

###

assay: Drug concentration in serum and tissues by LC-MS, pharmacokinetics and BBB permeability; type: in vivo, mice; conditions: C57BL/6, mouse, iv; 15 mg/kg i.v.; heart; tissue density assumed 1 g/ml; mean ± SD; read-out: AUC0–6 h
test.readout: AUC(0-t)
Remember to quote the unit after the number.

The compound listed as O=C(CCN1CCN(Cc2ccccc2)CC1)Nc1nc(-c2ccccc2)cs1 [TJ-5] has a reported AUC(0-t) of 6480 ng·h/mL
